Tested on: BDF1 mice, colon carcinoma 38 sc, T/C %
Assay: NCI In Vivo Anticancer Drug Screen. Data for tumor model Colon Carcinoma 38 (subcutaneous) in B6D2F1 (BDF1) mice
Details: endpoint: median tumor weight (est.); dose: 100.0 mg/kg/injection; schedule: Q07DX002 (ip); vehicle: saline; higher = larger tumour
Description: The antitumor activity of compounds was measured in mice bearing transplantable tumors. Survival or tumor size were measured and the results are expressed as the measurement made in the treated group (T) divided by the measurement made in the vehicle treated control group (C). The tumor model used in this assay is Colon Carcinoma 38 (subcutaneous) in B6D2F1 (BDF1) mice
Inconclusive results are not listed.
quantity: T/C

For OCCCN1CCCCC1CO (stereo not drawn) , what is its reported T/C? 108 % of control

For "O=C(O)Cc1cccc2c(=O)cc(-c3ccc4ccccc4c3)oc12" , what is its reported T/C? 104 % of control

Attention now shifts to the item below.
For "O=C1C(O)=C(c2ccccc2)C(=O)C(O)=C1c1ccccc1" , what is its reported T/C? 105 % of control
